- Tested on: HL-60(TB) leukemia
- Protocol text: NCI tumour cell line growth inhibition, 48 h
Residues, ends and D or L forms follow the SMILES beside them. *: point of attachment. Cbz = O=C(OCc1ccccc1)*
Experimental readout: TGI (µM)
Record the value in µM, omitting the unit from your answer.

A selection of reference data follows.
Compound: Cc1ccc(C2=Nc3ccccc3S(=O)C(c3ccc4c(c3)OCO4)C2)cc1 (configuration not stated)
Target system: HL-60(TB) leukemia
TGI (µM): 59.1

Compound: CC(C)C[C@@H](C=O)NC(=O)[C@H](CC(C)C)NC(=O)[C@H](CC(C)C)NC(=O)OCc1ccccc1 (Cbz-Leu-Leu-Leu-aldehyde)
Target system: HL-60(TB) leukemia
TGI (µM): 1.89

Compound: O=C1CC(N2C(=O)/C(=C/C(Cl)=C\c3ccc([N+](=O)[O-])cc3)SC2=S)C(=O)N1c1ccc(O)cc1 (configuration not stated)
Target system: HL-60(TB) leukemia
TGI (µM): 9.57

Compound: COc1ccc(-c2nc3c(C(=O)NCCN(C)C)cccc3c3ccccc23)cc1
Target system: HL-60(TB) leukemia
TGI (µM): 7

Next item in the queue.
## Task For the compound shown here, CCOC(=O)CN(c1ccccc1)c1nc(=[N+](C)C)ss1 , give the reported TGI.
## Result 48.4

---

In this section, each of the compounds is paired with its reported TGI.
- Tested on: HCT-116 colon
- Protocol text: NCI tumour cell line growth inhibition, 48 h

## Task For the compound shown here, COC(=O)[C@]12CSC[C@H]1C[C@H](c1cccc3ccccc13)N2 , give the reported TGI.
## Result > 100 µM

## Task For the compound shown here, COc1cc(C2c3cc4c(cc3OC(NCCO)C2C)OCO4)cc(OC)c1O (stereo unspecified) , give the reported TGI.
## Result > 100 µM

## Task For the compound shown here, O=C(Nc1cccc(C(=O)NCCCO)c1)/C(=C/c1ccccc1)NC(=O)c1ccccc1 , give the reported TGI.
## Result > 100 µM

## Task For the compound shown here, COc1cc(CCC(=O)NC[C@@H](O)c2ccccc2)ccc1O , give the reported TGI.
## Result > 100 µM

## Task For the compound shown here, CC(=O)Nc1cc2nc3n(c2cc1C)CCC3OC(C)=O (stereo unspecified) , give the reported TGI.
## Result > 100 µM

## Task For the compound shown here, CC1Cc2ccccc2N1C(=O)Cc1nc(N2CCOCC2)cc(=O)[nH]1 (stereo unspecified) , give the reported TGI.
## Result > 100 µM

---

In this section, each of the compounds is paired with its reported TGI.
- System: SR leukemia
- Protocol text: NCI tumour cell line growth inhibition, 48 h

A selection of reference data follows.
Compound: Cn1c(-c2c(N)n(Cc3ccc(F)cc3)c3nc(C#N)c(C#N)nc23)nc2ccccc21
TGI: > 50 µM

Compound: O=c1[nH]c(=O)n(CCOCP(=O)(O)O)nc1Br
TGI: > 100 µM

## Task For the compound shown here, O=C1CS(=O)(=O)C(c2cccc(Oc3ccccc3)c2)N1C1CC1 (stereo not drawn) , give the reported TGI.
## Result > 100 µM

## Task For the compound shown here, CC1=N[C@@](C)(C2CC3C=CC2C3=O)COC1=O (stereo partly drawn) , give the reported TGI.
## Result > 100 µM

## Task For the compound shown here, C=CCOC(=O)Nc1cccn([C@H](CC(C)C)C(=O)NCCC(C)C)c1=O , give the reported TGI.
## Result > 100 µM

## Task For the compound shown here, Oc1ccccc1/C=N\NC(=S)N/N=C/c1ccccc1O , give the reported TGI.
## Result > 100 µM

## Task For the compound shown here, Cc1ccccc1C(C(=O)NC1CCCCC1)N(C(=O)CNc1ncccc1F)c1cccc(F)c1 (stereo not drawn) , give the reported TGI.
## Result > 100 µM

## Task For the compound shown here, CCN(CCO)CCNc1ccc(C)c2sc3ccccc3c(=O)c12 , give the reported TGI.
## Result > 22.4 µM

## Task For the compound shown here, COC(=O)/N=[N+](\[O-])C(c1ccccc1)c1ccccc1 , give the reported TGI.
## Result > 100 µM

## Task For the compound shown here, COc1cc(CCC(=O)NC[C@@H](O)c2ccccc2)ccc1O , give the reported TGI.
## Result > 100 µM

## Task For the compound shown here, CCOC(=O)N/N=C(\CC)OCC , give the reported TGI.
## Result > 100 µM

## Task For the compound shown here, Cc1c2c(nn1-c1ccc(S(=O)(=O)NC(=S)NC(=O)c3ccccc3)cc1)-c1ccccc1CC2 , give the reported TGI.
## Result > 100 µM

## Task For the compound shown here, CCC1(c2ccc(N)cc2)CCC(=O)NC1=O (stereo not drawn) , give the reported TGI.
## Result > 5000 µM
